Each recorded value in this set is attributed to the supplement of paper PMC12350171.

# Tested on: S. enterica typhimurium tolC KO
# Assay Remarks: growth AUC normalised to DMSO control (median) (fraction of control); higher = less growth inhibition, active = hit call of the paper
# Condition Set: 20 µM
Counter-ions that a name gives are not always drawn.
In this exercise, the only acceptable responses are 1.0 for active, 0.0 for inactive

Compound: CCCCOc1ccc(C(=O)CCN2CCCCC2)cc1 [Dyclonine hydrochloride]
Qualitative Label: 0.0

Inquiry: Name the outcome recorded for CC(=O)Oc1cc(C(F)(F)F)ccc1C(=O)O [Triflusal] in the assay.
Reply text: 0.0

Inquiry: I would be grateful if you could indicate the recorded call for O=C(Nc1ccccc1)OCC(CN1CCCCC1)OC(=O)Nc1ccccc1 (stereo not given) [Diperodon hydrochloride] .
Reply text: 0.0

Inquiry: GET /call?item= CC1(C)S[C@@H]2[C@H](NC(=O)[C@H](N)c3ccc(O)cc3)C(=O)N2[C@H]1C(=O)O [Amoxicillin] returns the recorded outcome of this test.
Reply text: 1.0

Inquiry: Status in this test for CC(CN(C)C)CN1c2ccccc2Sc2ccccc21 (stereo not given) [Trimeprazine tartrate] ?
Reply text: 0.0

---

# System: P. vulgatus WT
# Assay Remarks: growth AUC normalised to DMSO control (median) (fraction of control); higher = less growth inhibition, active = hit call of the paper
# Condition Set: 20 µM
Structures can show the parent of a compound that is named as a salt.
Endpoint Name: growth AUC normalised to DMSO control
Simply state the number, no unit and no words.

Examples from the recorded data:
Compound: CNCCC=C1c2ccccc2C=Cc2ccccc21 [Norcyclobenzaprine]
growth AUC normalised to DMSO control: 0.926
--
Compound: NC(=O)c1ncn([C@@H]2O[C@H](CO)[C@@H](O)[C@H]2O)c1O [Mizoribine]
growth AUC normalised to DMSO control: 1.01
--
Compound: CCOc1ccc2nc3cc(N)ccc3c(N)c2c1 [Ethacridine lactate]
growth AUC normalised to DMSO control: 0.961
--
Compound: Nc1ccc(/N=N/c2ccccc2)c(N)n1 [Phenazopyridine hydrochloride]
growth AUC normalised to DMSO control: 1.03
--
Compound: CO/N=C(\C(=O)N[C@@H]1C(=O)N2C(C(=O)[O-])=C(C[n+]3cccc4c3CCC4)CS[C@H]12)c1csc(N)n1 [Cefpirome sulfate]
growth AUC normalised to DMSO control: 0.00672

Inquiry: Report its growth AUC normalised to DMSO control with P. vulgatus WT as the test system: CCCc1c2oc(C(=O)O)cc(=O)c2cc2c(=O)cc(C(=O)O)n(CC)c12 [Nedocromil sodium]
Reply text: 1.03

Inquiry: Provide P. vulgatus WT growth AUC normalised to DMSO control reading for COC(=O)Nc1nc2cc(C(=O)c3ccccc3)ccc2[nH]1 [Mebendazole] .
Reply text: 0.991

Inquiry: Provide growth AUC normalised to DMSO control, recorded with P. vulgatus WT, of CC(C)NC(=N)NC(=N)Nc1ccc(Cl)cc1 [Proguanil hydrochloride]
Reply text: 1.01

---

# Test system: Salmonella enterica typhimurium
# Assay Remarks: growth AUC normalised to DMSO control (fraction of control); higher = less growth inhibition, active = hit call of the paper
# Condition Set: 20 µM
Structures can show the parent of a compound that is named as a salt.
Decide by growth AUC normalised to DMSO control: equal to or exceeding 1 means TRUE, less means FALSE.

Examples from the recorded data:
Molecule: CO[C@@]1(NC(=O)C(C(=O)O)c2ccc(O)cc2)C(=O)N2C(C(=O)O)=C(CSc3nnnn3C)CO[C@@H]21 (stereo not given in full) [Moxalactam disodium salt]
System Under Test: Salmonella enterica typhimurium
Qualitative Label: FALSE
--
Molecule: CC(C)(C)C(=O)OCOC(=O)[C@@H]1N2C(=O)[C@@H](NC(=O)[C@H](N)c3ccccc3)[C@H]2SC1(C)C [Pivampicillin]
System Under Test: Salmonella enterica typhimurium
Qualitative Label: FALSE
--
Molecule: NCc1ccccc1CC(=O)N[C@@H]1C(=O)N2C(C(=O)O)=C(CSc3nnnn3CC(=O)O)CS[C@H]12 [Ceforanide]
System Under Test: Salmonella enterica typhimurium
Qualitative Label: FALSE

Then this molecule:
Inquiry: Does the molecule CC(=O)N[C@@H](CC(C)C)C(=O)O [N-Acetyl-L-leucine] have recorded growth AUC normalised to DMSO control that is 1 or more?
Reply text: TRUE

---

# Test system: Shigella flexneri
# Assay Remarks: growth AUC normalised to DMSO control (fraction of control); higher = less growth inhibition, active = hit call of the paper
# Condition Set: 20 µM
Counter-ions that a name gives are not always drawn.
This section presents molecules with their documented growth AUC normalised to DMSO control values.
Please state the value as a number alone, without comment.

Molecule: C[C@@H](O[C@H]1OCCN(Cc2n[nH]c(=O)[nH]2)[C@H]1c1ccc(F)cc1)c1cc(C(F)(F)F)cc(C(F)(F)F)c1 [Aprepitant]
growth AUC normalised to DMSO control: 0.978

Inquiry: Identify the reported growth AUC normalised to DMSO control for the following entry. CCN1CCC[C@H]1CNC(=O)c1c(O)c(Cl)cc(Cl)c1OC [Raclopride]
Reply text: 0.983

Inquiry: Item CN[C@@H]1[C@H](O)[C@H](NC)[C@H]2O[C@@]3(O)C(=O)C[C@@H](C)O[C@H]3O[C@@H]2[C@H]1O [Spectinomycin dihydrochloride] : provide growth AUC normalised to DMSO control
Reply text: 1.01

Inquiry: Entry CCN(CC)CCOC(=O)C1(C2CCCCC2)CCCCC1 [Dicyclomine hydrochloride] needs its growth AUC normalised to DMSO control filled in; supply it.
Reply text: 0.978

---

Entries and their measured growth AUC normalised to DMSO control follow.
# System: Yersinia pseudotuberculosis
# Assay Remarks: growth AUC normalised to DMSO control (fraction of control); higher = less growth inhibition, active = hit call of the paper
# Condition Set: 20 µM
Where a name gives a salt, the structure may show the parent alone.
The reply should be a number, written without any unit.

Consider the following illustrative entries.
Compound: COc1ccccc1N1CCN(CCCCNC(=O)c2ccc3ccccc3c2)CC1
growth AUC normalised to DMSO control: 0.978
--
Compound: Cc1cc(CC(=O)O)n(C)c1C(=O)c1ccc(Cl)cc1 [Zomepirac sodium salt]
growth AUC normalised to DMSO control: 1
--
Compound: CCOc1nc2cccc(C(=O)O)c2n1Cc1ccc(-c2ccccc2-c2nnn[nH]2)cc1 [Candesartan]
growth AUC normalised to DMSO control: 1.01
--
Compound: OC(Cn1cncn1)(Cn1cncn1)c1ccc(F)cc1F [Fluconazole]
growth AUC normalised to DMSO control: 1.01
--
Compound: CC[N+](C)(C)Cc1ccccc1Br [Bretylium tosylate]
growth AUC normalised to DMSO control: 1.02
--
Compound: Nc1nc(Cl)nc2c1ncn2[C@H]1C[C@H](O)[C@@H](CO)O1 [Cladribine]
growth AUC normalised to DMSO control: 1
--
Compound: CC1(C)S[C@@H]2[C@H](NC(=O)[C@H](N)c3ccc(O)cc3)C(=O)N2[C@H]1C(=O)O [Amoxicillin]
growth AUC normalised to DMSO control: 0.0346
--
Compound: O=C(CCCN1CC=C(n2c(=O)[nH]c3ccccc32)CC1)c1ccc(F)cc1 [Droperidol]
growth AUC normalised to DMSO control: 0.98

Inquiry: For the compound O=C(O[C@@H]1C[C@@H]2C[C@H]3C[C@H](C1)N2CC3=O)c1c[nH]c2ccccc12 [Dolasetron mesilate] , report growth AUC normalised to DMSO control.
Reply text: 1.01

Inquiry: Give the reported value of growth AUC normalised to DMSO control for this record: CC(C(=O)O)c1ccc(-c2ccccc2)c(F)c1 (configuration not stated) [Flurbiprofen]
Reply text: 0.985

Inquiry: Specify reported growth AUC normalised to DMSO control for the compound shown: CC[C@H]1OC(=O)[C@H](C)[C@@H](O[C@H]2C[C@@](C)(OC)[C@@H](O)[C@H](C)O2)[C@H](C)[C@@H](O[C@@H]2O[C@H](C)C[C@H](N(C)C)[C@H]2O)[C@](C)(O)C[C@@H](C)C(=O)[C@H](C)[C@@H](O)[C@]1(C)O [Erythromycin]
Reply text: 0.767

Inquiry: Consider the compound CN(C)CCOC(=O)COc1ccc(Cl)cc1 [Meclofenoxate hydrochloride] and give its recorded growth AUC normalised to DMSO control.
Reply text: 0.935

Inquiry: Provide one value: measured growth AUC normalised to DMSO control of CCN1C(=O)NC(c2ccccc2)C1=O (configuration not stated) [Ethotoin]
Reply text: 0.992

---

# Test system: S. enterica typhimurium tolC KO
# Assay Remarks: growth AUC normalised to DMSO control (median) (fraction of control); higher = less growth inhibition, active = hit call of the paper
# Condition Set: 20 µM
Structures can show the parent of a compound that is named as a salt.
Return exactly one item of TRUE (active), FALSE (inactive)

Compound: C[C@H](CCC(=O)O)[C@H]1CC[C@H]2[C@@H]3C(=O)C[C@@H]4CC(=O)CC[C@]4(C)[C@H]3CC(=O)[C@]12C [Dehydrocholic acid]
Qualitative Label: FALSE
--
Compound: O=C(Cn1cnnn1)N[C@@H]1C(=O)N2C(C(=O)O)=C(CSc3nncs3)CS[C@H]12
Qualitative Label: TRUE
--
Compound: CC(=O)Nc1cccc(O)c1
Qualitative Label: FALSE
--
Compound: CC(=O)Oc1ccccc1C(=O)O
Qualitative Label: FALSE
--
Compound: CN(C)[C@@H]1C(=O)C(C(N)=O)=C(O)[C@@]2(O)C(=O)C3=C(O)c4c(O)ccc(Cl)c4[C@@H](O)[C@H]3C[C@@H]12 [Demeclocycline hydrochloride]
Qualitative Label: TRUE

Inquiry: What was the test verdict on `O=c1[nH]c(=O)n([C@H]2C[C@H](O)[C@@H](CO)O2)cc1I` ?
Reply text: FALSE

Inquiry: For `Cn1c(=O)c2c(ncn2CCO)n(C)c1=O` , what call appears in the results of this test?
Reply text: FALSE

Inquiry: Name the outcome recorded for N#C/C(=C1/SCC(c2ccccc2Cl)S1)n1ccnc1 (stereo not drawn) in the assay.
Reply text: FALSE
